// normalized growth lookup, one value per entry
# PROCEDURE_SUMMARY: chemical genetic growth profiling, strain panel (AID 1159580);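 note: tested at 20 µM; growth read once vehicle control cultures reached saturation at 30 °C; 1 = growth at the plate median or of vehicle wells; lower values mean less growth of the strain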
# STUDY_CONDITIONS: S. cerevisiae deletion strains, growth OD, locus YGL078C, strain dbp3, hits give low values
The whole screen tested about 5,500 compounds, of which about 2,000 (36%) were called active. Inconclusive results (about 18%) are left out. The list shows a part of the results. Where a SMILES comes first, the peptide text is derived from it. [ ]: non-standard residue; d: D form. Orn = NCCC[CH](N)C(=O)O

Worked cases, normalized growth given:
CC(C)CC1NC(=O)C(CCCN)NC(=O)C(C(C)C)NC(=O)C2CCCN2C(=O)C(Cc2ccccc2)NC(=O)C(CC(C)C)NC(=O)C(CCCN)NC(=O)C(C(C)C)NC(=O)C2CCCN2C(=O)C(Cc2ccccc2)NC1=O (stereo not drawn) (cyclo(FPV[Orn]LFPV[Orn]L); configuration not given here)    0.993 (inactive)
COc1cc(-c2coc3cc(O[C@@H]4O[C@H](CO)[C@@H](O)[C@H](O)[C@H]4O)c(OC)c(O)c3c2=O)cc(O)c1OC    0.988 (inactive)

Exercise: May I ask what normalized growth has been recorded for O=c1oc2c(O)c(O)cc3c(=O)oc4c(O)c(O)cc1c4c23 ?
Key: 0.976 (inactive)
